- target_or_test_system: equine FcRn (large alpha subunit p51) / equine beta-2-microglobulin complex, biotinylated (equine) (UniProt P30441)
- experiment_notes: SPR (Biacore), pH 6
endpoint_label: pKd
The meaning of pKd here: minus log10 of the concentration in molar units.

Quote pKd reported for equine IgG4 T286Q (antibody, part only; not given: Variable domains, not shown: another chain or arm of the molecule) constant: ASTTAPKVFPLASHSAATSGSTVALGCLVSSYFPEPVTVSWNSGALTSGVHTFPSVLQSSGLYSLSSMVTVPASSLKSQTYICNVAHPASSTKVDKKIVIKECNGGCPAECLQVGPSVFIFPPKPKDVLMISRTPTVTCVVVDVGHDFPDVQFNWYVDGVETHQATTEPKQEQFNSTYRVVSVLPIQHKDWLSGKEFKCKVNNKALPAPVERTISKPTGQPREPQVYVLAPHRDELSKNKVSVTCLVKDFYPTDIDIEWKSNGQPEPETKYSTTPAQLDSDGSYFLYSKLTVETNRWQQGTTFTCAVMHEALHNHYTEKSVSKSPGK please. 7.61

Provide only the value of recorded pKd for equine IgG4 D312W (antibody, part only; not given: Variable domains, not shown: another chain or arm of the molecule) constant: ASTTAPKVFPLASHSAATSGSTVALGCLVSSYFPEPVTVSWNSGALTSGVHTFPSVLQSSGLYSLSSMVTVPASSLKSQTYICNVAHPASSTKVDKKIVIKECNGGCPAECLQVGPSVFIFPPKPKDVLMISRTPTVTCVVVDVGHDFPDVQFNWYVDGVETHTATTEPKQEQFNSTYRVVSVLPIQHKWWLSGKEFKCKVNNKALPAPVERTISKPTGQPREPQVYVLAPHRDELSKNKVSVTCLVKDFYPTDIDIEWKSNGQPEPETKYSTTPAQLDSDGSYFLYSKLTVETNRWQQGTTFTCAVMHEALHNHYTEKSVSKSPGK 7.92
